Cited source for all entries: patent US7655643B2

Tested on: S. aureus T17
assayProcedure: MIC, alternative method, agar dilution test
Format: cell-based
studyConditions: Staphylococcus aureus, T17; agar dilution, 1.5% agar with 20% defibrinated horse blood, 5% CO2, 18-24 h; read-out: MIC S. aureus T17
Give MIC for every item shown.
// units = µg/mL; emit number, no label

Look up and report measured MIC for this entry: NCCNC(=O)[C@@H]1Cc2cccc(c2)-c2ccc(O)c(c2)C[C@H](N)C(=O)N[C@@H](C[C@@H](O)CN)C(=O)N1 [Example 36]
2

Look up and report measured MIC for this entry: NCCNC(=O)[C@@H]1Cc2cc(ccc2F)-c2ccc(O)c(c2)C[C@H](N)C(=O)N[C@@H](C[C@@H](O)CN)C(=O)N1 [Example 12]
1

Look up and report measured MIC for this entry: CN1C(=O)[C@H](CCCN)NC(=O)[C@@H](N)Cc2cc(ccc2O)-c2ccc(Cl)c(c2)C[C@H]1C(=O)NCCN(CCN)CCN [Example 42]
2

Look up and report measured MIC for this entry: CN1C(=O)[C@H](C[C@@H](O)CN)NC(=O)[C@@H](N)Cc2cc(ccc2O)-c2ccc(Cl)c(c2)C[C@H]1C(=O)NCC(O)CN (stereo partly shown) [Example 9]
4
